# test-target: Human AXL (residues 464-885) (Homo sapiens (Human))
# Sequence (P30530 473-894): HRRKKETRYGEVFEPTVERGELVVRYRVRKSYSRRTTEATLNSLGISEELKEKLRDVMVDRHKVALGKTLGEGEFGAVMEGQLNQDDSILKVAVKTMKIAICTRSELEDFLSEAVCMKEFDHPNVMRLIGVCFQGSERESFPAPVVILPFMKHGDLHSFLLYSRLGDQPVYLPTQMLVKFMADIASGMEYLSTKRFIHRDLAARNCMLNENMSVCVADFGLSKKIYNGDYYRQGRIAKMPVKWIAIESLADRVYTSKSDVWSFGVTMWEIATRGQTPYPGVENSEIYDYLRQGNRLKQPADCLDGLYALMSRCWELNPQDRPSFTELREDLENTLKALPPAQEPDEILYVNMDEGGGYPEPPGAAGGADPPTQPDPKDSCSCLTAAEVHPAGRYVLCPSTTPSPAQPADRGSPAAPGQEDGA
# method: Human AXL kinase assay, HTRF KinEase (Example A-2)
# Type: biochemical
# condition-summary: protocol of Example A-2
pIC50: −log10 of the molar value.
Let's look at some compounds and their measured pIC50.
parameter: pIC50

>  <structure-as-smiles>
C=C(C)c1cnc2c(Oc3ccc(NC(=O)c4c(C)cc(C)n(-c5ccc(F)cc5)c4=O)cc3F)ccnc2c1

>  <experimental-result>
> 7.00

$$$$
>  <structure-as-smiles>
CNc1nccc2c(Oc3ccc(NC(=O)c4cnc(C)n(-c5ccc(F)cc5)c4=O)cc3)ccnc12

>  <experimental-result>
> 7.00

$$$$

* * *

# test-target: KDR (phospho-KDR, VEGF165-stimulated HUVEC cells) (Homo sapiens (Human))
# method: KDR autophosphorylation ELISA in HUVEC cells (Example G)
# Type: cell-based
# condition-summary: cellular activity; KDR autophosphorylation ELISA in HUVEC cells
pIC50: −log10 of the molar value.

>  <structure-as-smiles>
COc1cc2nccc(Oc3ccc(NC(=O)c4c(C)nc(C)c(-c5ccc(C(C)C)cc5)c4O)cc3F)c2nc1OC

>  <test-target>
KDR (phospho-KDR, VEGF165-stimulated HUVEC cells) (Homo sapiens (Human))

>  <pIC50>
> 7.00

$$$$
>  <structure-as-smiles>
COCCOc1nc2c(Oc3ccc(NC(=O)c4c(C)nc(C)c(-c5ccc(F)cc5)c4O)cc3F)ccnc2cc1OC

>  <test-target>
KDR (phospho-KDR, VEGF165-stimulated HUVEC cells) (Homo sapiens (Human))

>  <pIC50>
> 7.00

$$$$
>  <structure-as-smiles>
CNC(=O)c1cnc2c(Oc3ccc(NC(=O)c4cnc(C)c(-c5ccc(F)cc5)c4O)cc3F)ccnc2c1

>  <test-target>
KDR (phospho-KDR, VEGF165-stimulated HUVEC cells) (Homo sapiens (Human))

>  <pIC50>
< 6.52

$$$$
>  <structure-as-smiles>
COCc1ccc(C(=O)Nc2ccc(Oc3ccnc4cc(OC)c(OC)nc34)c(F)c2)c(=O)n1-c1ccc(F)cc1

>  <test-target>
KDR (phospho-KDR, VEGF165-stimulated HUVEC cells) (Homo sapiens (Human))

>  <pIC50>
> 7.00

$$$$
>  <structure-as-smiles>
COc1cc2nccc(Oc3ccc(NC(=O)c4cn(-c5cnn(C)c5)cc(-c5ccc(F)cc5)c4=O)cc3F)c2nc1OC

>  <test-target>
KDR (phospho-KDR, VEGF165-stimulated HUVEC cells) (Homo sapiens (Human))

>  <pIC50>
< 6.52

$$$$
>  <structure-as-smiles>
COc1cc2nccc(Oc3ccc(NC(=O)c4cnc(C)c(-c5ccc(F)cc5)c4O)cc3F)c2nc1OC(C)C

>  <test-target>
KDR (phospho-KDR, VEGF165-stimulated HUVEC cells) (Homo sapiens (Human))

>  <pIC50>
> 7.00

$$$$
>  <structure-as-smiles>
COc1cnc2c(Oc3ccc(NC(=O)c4c(C)nc(C)c(-c5ccc(C(C)C)cc5)c4O)cc3F)ccnc2c1

>  <test-target>
KDR (phospho-KDR, VEGF165-stimulated HUVEC cells) (Homo sapiens (Human))

>  <pIC50>
< 6.52

$$$$

* * *

Recorded measurements of pIC50, one per entry
# test-target: KDR (phospho-KDR, VEGF165-stimulated HUVEC cells) (Homo sapiens (Human), UniProt P35968)
# Sequence (P35968 20-1356): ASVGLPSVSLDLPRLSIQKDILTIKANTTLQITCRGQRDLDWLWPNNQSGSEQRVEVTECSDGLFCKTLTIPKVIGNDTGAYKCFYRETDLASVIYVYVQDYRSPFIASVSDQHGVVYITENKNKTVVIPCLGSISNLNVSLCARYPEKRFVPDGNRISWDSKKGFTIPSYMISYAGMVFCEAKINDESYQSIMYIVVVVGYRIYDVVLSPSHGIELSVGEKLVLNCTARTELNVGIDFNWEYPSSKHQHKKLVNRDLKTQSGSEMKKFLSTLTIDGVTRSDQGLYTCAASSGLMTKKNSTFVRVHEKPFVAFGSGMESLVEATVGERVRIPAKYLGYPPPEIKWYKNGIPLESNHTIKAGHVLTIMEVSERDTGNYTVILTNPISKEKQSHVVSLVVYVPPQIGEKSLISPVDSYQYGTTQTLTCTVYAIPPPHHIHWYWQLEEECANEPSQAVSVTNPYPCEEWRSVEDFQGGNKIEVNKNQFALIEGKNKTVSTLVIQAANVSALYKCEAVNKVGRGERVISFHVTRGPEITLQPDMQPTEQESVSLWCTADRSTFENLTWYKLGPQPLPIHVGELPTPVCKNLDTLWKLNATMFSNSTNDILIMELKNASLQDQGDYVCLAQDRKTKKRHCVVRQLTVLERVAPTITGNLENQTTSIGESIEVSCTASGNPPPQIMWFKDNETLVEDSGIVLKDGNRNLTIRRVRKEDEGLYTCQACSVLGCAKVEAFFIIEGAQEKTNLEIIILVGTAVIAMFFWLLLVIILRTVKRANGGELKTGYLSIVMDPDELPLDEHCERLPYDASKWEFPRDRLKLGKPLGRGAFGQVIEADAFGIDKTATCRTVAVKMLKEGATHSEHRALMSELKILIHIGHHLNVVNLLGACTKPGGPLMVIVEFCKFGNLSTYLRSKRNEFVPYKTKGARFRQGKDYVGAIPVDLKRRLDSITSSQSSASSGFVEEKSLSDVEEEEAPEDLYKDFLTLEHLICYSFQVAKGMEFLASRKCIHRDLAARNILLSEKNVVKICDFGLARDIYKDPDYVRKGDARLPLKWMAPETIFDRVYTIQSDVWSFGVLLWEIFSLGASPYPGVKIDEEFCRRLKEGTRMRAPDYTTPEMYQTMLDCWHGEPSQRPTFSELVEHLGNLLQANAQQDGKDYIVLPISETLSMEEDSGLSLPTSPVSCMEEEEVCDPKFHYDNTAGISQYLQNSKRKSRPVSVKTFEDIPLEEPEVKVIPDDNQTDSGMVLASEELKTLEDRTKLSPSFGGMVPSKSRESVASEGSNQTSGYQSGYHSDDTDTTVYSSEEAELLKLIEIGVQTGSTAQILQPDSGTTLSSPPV
# method: KDR autophosphorylation ELISA in HUVEC cells (Example G)
# Format: cell-based
# condition-summary: cellular activity; KDR autophosphorylation ELISA in HUVEC cells
pIC50: −log10 of the molar value.
parameter: pIC50

>  <structure-as-smiles>
COc1cc2nccc(Oc3ccc(NC(=O)c4nnc(C)c(-c5ccc(F)cc5)c4OC)cc3)c2nc1OC

>  <test-target>
KDR (phospho-KDR, VEGF165-stimulated HUVEC cells) (Homo sapiens (Human), UniProt P35968)

>  <parameter>
pIC50

>  <experimental-result>
> 7.00

$$$$
>  <structure-as-smiles>
CCc1cnc2c(Oc3ccc(NC(=O)c4cnc(C)c(-c5ccc(F)cc5)c4O)cc3F)ccnc2c1

>  <test-target>
KDR (phospho-KDR, VEGF165-stimulated HUVEC cells) (Homo sapiens (Human), UniProt P35968)

>  <parameter>
pIC50

>  <experimental-result>
> 7.00

$$$$
>  <structure-as-smiles>
COc1cnc2c(Oc3ccc(NC(=O)c4c(C)ncc(-c5ccc(F)c(C)c5)c4O)cc3F)ccnc2c1

>  <test-target>
KDR (phospho-KDR, VEGF165-stimulated HUVEC cells) (Homo sapiens (Human), UniProt P35968)

>  <parameter>
pIC50

>  <experimental-result>
> 7.00

$$$$
>  <structure-as-smiles>
COc1cc2nccc(Oc3ccc(NC(=O)c4cn(C5COC5)cc(-c5ccc(F)cc5)c4=O)cc3F)c2nc1OC

>  <test-target>
KDR (phospho-KDR, VEGF165-stimulated HUVEC cells) (Homo sapiens (Human), UniProt P35968)

>  <parameter>
pIC50

>  <experimental-result>
< 6.52

$$$$
>  <structure-as-smiles>
COc1cc2nccc(Oc3ccc(NC(=O)c4c(C)n(CC(F)F)cc(-c5ccc(F)cc5)c4=O)cc3F)c2nc1OC

>  <test-target>
KDR (phospho-KDR, VEGF165-stimulated HUVEC cells) (Homo sapiens (Human), UniProt P35968)

>  <parameter>
pIC50

>  <experimental-result>
6.52 to 7.00

$$$$
>  <structure-as-smiles>
COc1cc2nccc(Oc3ccc(NC(=O)c4nn(C(F)F)c(C)c(-c5ccc(F)cc5)c4=O)cc3F)c2nc1OC

>  <test-target>
KDR (phospho-KDR, VEGF165-stimulated HUVEC cells) (Homo sapiens (Human), UniProt P35968)

>  <parameter>
pIC50

>  <experimental-result>
6.52 to 7.00

$$$$
>  <structure-as-smiles>
COc1ccc2nccc(Oc3ccc(NC(=O)c4cnc(C)c(-c5ccc(F)cc5)c4O)cc3)c2n1

>  <test-target>
KDR (phospho-KDR, VEGF165-stimulated HUVEC cells) (Homo sapiens (Human), UniProt P35968)

>  <parameter>
pIC50

>  <experimental-result>
> 7.00

$$$$
>  <structure-as-smiles>
Cc1ccc2nccc(Oc3ccc(NC(=O)c4cn(C)c(CO)c(-c5ccc(F)cc5)c4=O)cc3F)c2n1

>  <test-target>
KDR (phospho-KDR, VEGF165-stimulated HUVEC cells) (Homo sapiens (Human), UniProt P35968)

>  <parameter>
pIC50

>  <experimental-result>
< 6.52

$$$$
>  <structure-as-smiles>
COc1cnc2c(Oc3ccc(NC(=O)c4cnc(C)c(-c5ccc(F)cc5C)c4O)cc3)ccnc2c1

>  <test-target>
KDR (phospho-KDR, VEGF165-stimulated HUVEC cells) (Homo sapiens (Human), UniProt P35968)

>  <parameter>
pIC50

>  <experimental-result>
> 7.00

$$$$
>  <structure-as-smiles>
COc1ccc2c(Oc3ccc(NC(=O)c4cnc(C)c(-c5ccc(F)cc5)c4O)cc3)ccnc2c1

>  <test-target>
KDR (phospho-KDR, VEGF165-stimulated HUVEC cells) (Homo sapiens (Human), UniProt P35968)

>  <parameter>
pIC50

>  <experimental-result>
> 7.00

$$$$
>  <structure-as-smiles>
COc1cnc2c(Oc3ccc(NC(=O)c4c5n(c(C)c(-c6ccc(F)cc6)c4=O)CCOC5)cc3F)ccnc2c1

>  <test-target>
KDR (phospho-KDR, VEGF165-stimulated HUVEC cells) (Homo sapiens (Human), UniProt P35968)

>  <parameter>
pIC50

>  <experimental-result>
< 6.52

$$$$
>  <structure-as-smiles>
Cc1ncc(C(=O)Nc2ccc(Oc3ccnc4cnccc34)cc2)c(O)c1-c1ccc(F)cc1

>  <test-target>
KDR (phospho-KDR, VEGF165-stimulated HUVEC cells) (Homo sapiens (Human), UniProt P35968)

>  <parameter>
pIC50

>  <experimental-result>
> 7.00

$$$$
>  <structure-as-smiles>
CNC(=O)c1cc2nccc(Oc3cc(F)c(NC(=O)c4ccc(C)n(-c5ccc(F)cc5)c4=O)cc3F)c2cc1C

>  <test-target>
KDR (phospho-KDR, VEGF165-stimulated HUVEC cells) (Homo sapiens (Human), UniProt P35968)

>  <parameter>
pIC50

>  <experimental-result>
> 7.00

$$$$
>  <structure-as-smiles>
COc1cc2nccc(Oc3ccc(NC(=O)c4cn(CCO)cc(-c5ccc(F)cc5)c4=O)cc3F)c2nc1OC

>  <test-target>
KDR (phospho-KDR, VEGF165-stimulated HUVEC cells) (Homo sapiens (Human), UniProt P35968)

>  <parameter>
pIC50

>  <experimental-result>
> 7.00

$$$$
>  <structure-as-smiles>
COCc1nc(C)c(-c2ccc(F)cc2)c(O)c1C(=O)Nc1ccc(Oc2ccnc3cc(OC)c(OC)nc23)cc1

>  <test-target>
KDR (phospho-KDR, VEGF165-stimulated HUVEC cells) (Homo sapiens (Human), UniProt P35968)

>  <parameter>
pIC50

>  <experimental-result>
> 7.00

$$$$
>  <structure-as-smiles>
COc1cc2nccc(Oc3ccc(NC(=O)c4cn(C(C)C)c(C)c(-c5ccc(F)cc5)c4=O)cc3F)c2nc1Br

>  <test-target>
KDR (phospho-KDR, VEGF165-stimulated HUVEC cells) (Homo sapiens (Human), UniProt P35968)

>  <parameter>
pIC50

>  <experimental-result>
6.52 to 7.00

$$$$
>  <structure-as-smiles>
CCOc1ccn(-c2ccc(F)cc2)c(=O)c1C(=O)Nc1ccc(Oc2ccnc3cc(OC)c(OC)nc23)cc1

>  <test-target>
KDR (phospho-KDR, VEGF165-stimulated HUVEC cells) (Homo sapiens (Human), UniProt P35968)

>  <parameter>
pIC50

>  <experimental-result>
6.52 to 7.00

$$$$
>  <structure-as-smiles>
COc1cc2nccc(Oc3ccc(NC(=O)c4n[nH]c(C)cc4=O)cc3F)c2nc1OC

>  <test-target>
KDR (phospho-KDR, VEGF165-stimulated HUVEC cells) (Homo sapiens (Human), UniProt P35968)

>  <parameter>
pIC50

>  <experimental-result>
< 6.52

$$$$
>  <structure-as-smiles>
CCc1cnc2c(Oc3ccc(NC(=O)c4cnc(C)c(-c5ccc(F)cc5C)c4O)cc3F)ccnc2c1

>  <test-target>
KDR (phospho-KDR, VEGF165-stimulated HUVEC cells) (Homo sapiens (Human), UniProt P35968)

>  <parameter>
pIC50

>  <experimental-result>
> 7.00

$$$$
>  <structure-as-smiles>
COc1ccc2nccc(Oc3ccc(NC(=O)c4c(C)ncc(-c5ccc(F)cc5)c4O)cc3F)c2n1

>  <test-target>
KDR (phospho-KDR, VEGF165-stimulated HUVEC cells) (Homo sapiens (Human), UniProt P35968)

>  <parameter>
pIC50

>  <experimental-result>
> 7.00

$$$$
>  <structure-as-smiles>
COc1cc2nccc(Oc3ccc(NC(=O)c4c(C)n(CCF)cc(-c5ccc(F)cc5)c4=O)cc3F)c2nc1OC

>  <test-target>
KDR (phospho-KDR, VEGF165-stimulated HUVEC cells) (Homo sapiens (Human), UniProt P35968)

>  <parameter>
pIC50

>  <experimental-result>
6.52 to 7.00

$$$$
>  <structure-as-smiles>
COc1cc2nccc(Oc3ccc(NC(=O)c4c(C)ccn(-c5ccc(F)cc5)c4=O)cc3F)c2nc1OC

>  <test-target>
KDR (phospho-KDR, VEGF165-stimulated HUVEC cells) (Homo sapiens (Human), UniProt P35968)

>  <parameter>
pIC50

>  <experimental-result>
> 7.00

$$$$
>  <structure-as-smiles>
COCCOc1cc2nccc(Oc3ccc(NC(=O)c4c(COC)nc(C)c(-c5ccc(F)cc5)c4O)cc3F)c2nc1OC

>  <test-target>
KDR (phospho-KDR, VEGF165-stimulated HUVEC cells) (Homo sapiens (Human), UniProt P35968)

>  <parameter>
pIC50

>  <experimental-result>
> 7.00

$$$$
>  <structure-as-smiles>
COc1cc2c(Oc3ccc(NC(=O)c4ncc(C)n(-c5ccc(F)cc5)c4=O)cc3F)ccnc2cn1

>  <test-target>
KDR (phospho-KDR, VEGF165-stimulated HUVEC cells) (Homo sapiens (Human), UniProt P35968)

>  <parameter>
pIC50

>  <experimental-result>
6.52 to 7.00

$$$$
>  <structure-as-smiles>
COc1cnc2c(Oc3ccc(NC(=O)c4c(C)nc(C)c(-c5ccc(S(C)(=O)=O)cc5)c4O)cc3F)ccnc2c1

>  <test-target>
KDR (phospho-KDR, VEGF165-stimulated HUVEC cells) (Homo sapiens (Human), UniProt P35968)

>  <parameter>
pIC50

>  <experimental-result>
< 6.52

$$$$
>  <structure-as-smiles>
COc1cnc2c(Oc3ccc(NC(=O)c4c(C)ncc(-c5ccc(F)cc5)c4O)cc3)ccnc2c1

>  <test-target>
KDR (phospho-KDR, VEGF165-stimulated HUVEC cells) (Homo sapiens (Human), UniProt P35968)

>  <parameter>
pIC50

>  <experimental-result>
> 7.00

$$$$
>  <structure-as-smiles>
COc1cnc2c(Oc3ccc(NC(=O)c4cn(C)c(OC)c(-c5ccc(F)cc5)c4=O)cc3F)ccnc2c1

>  <test-target>
KDR (phospho-KDR, VEGF165-stimulated HUVEC cells) (Homo sapiens (Human), UniProt P35968)

>  <parameter>
pIC50

>  <experimental-result>
< 6.52

$$$$
>  <structure-as-smiles>
Cc1cc(F)ccc1-c1c(C)nc(C)c(C(=O)Nc2ccc(Oc3ccnc4cccnc34)c(F)c2)c1O

>  <test-target>
KDR (phospho-KDR, VEGF165-stimulated HUVEC cells) (Homo sapiens (Human), UniProt P35968)

>  <parameter>
pIC50

>  <experimental-result>
> 7.00

$$$$
>  <structure-as-smiles>
COc1ccc2c(Oc3ccc(NC(=O)c4cnc(C)c(-c5ccc(F)cc5)c4O)cc3F)ccnc2c1

>  <test-target>
KDR (phospho-KDR, VEGF165-stimulated HUVEC cells) (Homo sapiens (Human), UniProt P35968)

>  <parameter>
pIC50

>  <experimental-result>
> 7.00

$$$$
